# Test system: HCT116 MTAP null cells
# measurement-description: HCT116 proliferation assay, MTAP null cells (CellTiter-Glo, 6 days)
# Type: cell-based
# settings: HCT116-MTAP null, 144 h, read-out: Protif_ HCT116-MTAP null IC50
pIC50: −log10 of the molar value.
Threshold check on pIC50: at or above 7 gives yes (1), strictly below gives no (0).

Example entries begin here.
* Cc1cc2cc(C(=O)N(Cc3ccc(C(F)(F)F)cn3)C(C)c3cccc(O)c3)ccc2nc1N (stereo not shown) | yes (1)
* Cc1cc2cc(C(=O)N(Cc3ccc(C(F)(F)F)cn3)C3CCCc4c[nH]nc43)ccc2nc1N (stereo not shown) | yes (1)
* Cc1cc2cc(C(=O)N(Cc3ccc(C(F)(F)F)cn3)[C@H](C)c3ncc(F)cn3)cnc2nc1N (single isomer, unassigned) | no (0)
* C[C@H](c1ncccn1)N(Cc1ccc(C(F)(F)F)nn1)C(=O)c1cnc2nc(N)c(I)cc2c1 | no (0)

Now turn to the next compound.
Query block: Check if pIC50 >= 7 (inclusive). Item: Cc1cc2cc(C(=O)N(Cc3ccc(C(F)(F)F)nn3)[C@@H]3CCC[C@H]3O)ccc2nc1N
Result block: no (0)

Cited source: patent US20230159510A1
